Reported Dmax values for the following compounds.
target: IKZF2 (Homo sapiens, UniProt Q96SW2+Q9UKS7); construct: CRISPR/Cas9—mediated insertion of the HiBiT peptide tag (Promega™) to the N-terminus of the IKZF2 gene locus; endogenous in cells; host or cells: MOLT4 cells, with CRISPR/Cas9 knock-in of HiBiT at the endogenous IKZF2 locus; assay: HiBit-IKZF2 assay (HiBiT-Helios degradation in MOLT4 cells); assay type: cell-based; details: MOLT-4, extent of degradation from highest to lowest concentration, 10 μM to 0.00026 μM, read-out: Dmax
Sequence (Q9UKS7 whole entry): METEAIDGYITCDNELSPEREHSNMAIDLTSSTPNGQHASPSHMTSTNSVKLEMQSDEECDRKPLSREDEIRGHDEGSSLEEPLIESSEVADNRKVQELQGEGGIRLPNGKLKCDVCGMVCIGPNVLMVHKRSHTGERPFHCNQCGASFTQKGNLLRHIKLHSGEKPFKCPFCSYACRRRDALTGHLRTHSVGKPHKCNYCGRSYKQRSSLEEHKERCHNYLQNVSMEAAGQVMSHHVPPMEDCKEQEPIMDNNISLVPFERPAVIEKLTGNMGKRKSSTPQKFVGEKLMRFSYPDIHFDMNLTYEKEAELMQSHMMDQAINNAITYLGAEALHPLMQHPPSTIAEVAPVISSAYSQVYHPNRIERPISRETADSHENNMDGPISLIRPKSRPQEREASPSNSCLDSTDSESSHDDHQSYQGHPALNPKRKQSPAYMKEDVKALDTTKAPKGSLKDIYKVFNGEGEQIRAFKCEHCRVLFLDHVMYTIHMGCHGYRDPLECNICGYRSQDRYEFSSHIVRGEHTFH
Sequence (Q96SW2 whole entry): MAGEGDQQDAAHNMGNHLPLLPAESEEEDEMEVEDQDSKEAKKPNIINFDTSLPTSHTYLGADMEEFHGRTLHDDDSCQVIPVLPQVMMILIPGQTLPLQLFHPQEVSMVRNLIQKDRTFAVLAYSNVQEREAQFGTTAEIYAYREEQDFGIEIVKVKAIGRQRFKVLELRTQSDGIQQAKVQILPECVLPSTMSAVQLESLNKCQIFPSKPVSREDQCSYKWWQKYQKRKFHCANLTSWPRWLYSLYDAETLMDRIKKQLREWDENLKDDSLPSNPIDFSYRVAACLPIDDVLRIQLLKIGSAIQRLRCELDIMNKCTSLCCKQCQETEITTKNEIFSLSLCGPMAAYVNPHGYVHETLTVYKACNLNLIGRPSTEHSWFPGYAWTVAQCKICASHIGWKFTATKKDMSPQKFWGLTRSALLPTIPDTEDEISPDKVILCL
Sequence (Q16531 whole entry partner): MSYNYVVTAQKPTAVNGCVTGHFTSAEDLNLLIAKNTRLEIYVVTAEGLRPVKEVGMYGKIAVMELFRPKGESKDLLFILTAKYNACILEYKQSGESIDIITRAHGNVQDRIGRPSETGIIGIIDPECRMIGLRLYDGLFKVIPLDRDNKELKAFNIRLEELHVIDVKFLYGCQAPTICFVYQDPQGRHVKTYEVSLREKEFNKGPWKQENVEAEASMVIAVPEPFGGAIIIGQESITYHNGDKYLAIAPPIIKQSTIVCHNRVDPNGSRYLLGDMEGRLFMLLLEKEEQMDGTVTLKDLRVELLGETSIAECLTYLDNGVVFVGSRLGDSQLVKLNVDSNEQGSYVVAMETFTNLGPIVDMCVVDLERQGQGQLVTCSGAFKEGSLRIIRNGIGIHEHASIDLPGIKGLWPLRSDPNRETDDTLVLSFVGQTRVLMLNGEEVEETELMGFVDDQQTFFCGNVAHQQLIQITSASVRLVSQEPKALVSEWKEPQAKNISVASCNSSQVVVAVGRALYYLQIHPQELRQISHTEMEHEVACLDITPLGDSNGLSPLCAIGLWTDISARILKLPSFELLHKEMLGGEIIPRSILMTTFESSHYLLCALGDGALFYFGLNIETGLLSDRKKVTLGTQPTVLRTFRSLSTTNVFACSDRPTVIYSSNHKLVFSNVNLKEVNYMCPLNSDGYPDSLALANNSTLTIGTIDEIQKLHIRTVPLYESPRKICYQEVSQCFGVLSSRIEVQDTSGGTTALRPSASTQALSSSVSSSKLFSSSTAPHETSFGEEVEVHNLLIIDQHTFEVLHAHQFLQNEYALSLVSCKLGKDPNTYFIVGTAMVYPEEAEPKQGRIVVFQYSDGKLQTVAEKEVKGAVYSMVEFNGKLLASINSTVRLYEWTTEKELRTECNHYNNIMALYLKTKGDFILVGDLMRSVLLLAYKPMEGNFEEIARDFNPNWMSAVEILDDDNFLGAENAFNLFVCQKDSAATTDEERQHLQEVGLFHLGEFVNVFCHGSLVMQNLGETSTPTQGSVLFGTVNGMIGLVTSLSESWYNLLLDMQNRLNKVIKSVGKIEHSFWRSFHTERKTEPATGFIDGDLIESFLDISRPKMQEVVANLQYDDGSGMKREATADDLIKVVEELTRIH

As a guide, the following entries are already answered.
| compound | test_value |
| --- | --- |
| Cc1ccnc(Nc2cccc(CN3CCC(c4ccc5c(c4)CN(C4CCC(=O)NC4=O)C5=O)CC3)c2F)n1 (stereo not shown) | 50 to 70% |
| O=C1CCC(N2Cc3cc(C4CCN(Cc5cccc(N6CCN(c7ccccc7)C6=O)c5)CC4)ccc3C2=O)C(=O)N1 (stereo not shown) | 50 to 70% |
| O=C1CCC(N2Cc3cc(C4CCN(Cc5ccccc5)C(CO)C4)ccc3C2=O)C(=O)N1 (stereo not shown) | 50 to 70% |
| Cc1ccccc1CN1CCC(O)(c2ccc3c(c2)CN(C2CCC(=O)NC2=O)C3=O)CC1 (stereo not shown) | > 70% |
| O=C1CCC(N2Cc3cc(C4CCN(Cc5cc(Nc6ccccc6)ncn5)CC4)ccc3C2=O)C(=O)N1 (stereo not shown) | 30 to 50% |
| CN(c1ccccc1)S(=O)(=O)c1ccc(CN2CCC(c3ccc4c(c3)CN(C3CCC(=O)NC3=O)C4=O)CC2)cc1 (stereo not shown) | 50 to 70% |

Ask | Lab note: need Dmax for O=C1CCC(N2Cc3cc(C4CCN(Cc5ccccc5N5Cc6ccccc6C5=O)CC4)ccc3C2=O)C(=O)N1 (stereo not shown) on IKZF2 (Homo sapiens, UniProt Q96SW2+Q9UKS7), anyone have it?
Reply | 30 to 50%

Ask | // repeat for O=C1CCC(N2Cc3cc(C4CCN(Cc5ccc6c(c5)S(=O)(=O)N(c5ccccc5)C6)CC4)ccc3C2=O)C(=O)N1 (stereo not shown) and report
Reply | 30 to 50%

Ask | // repeat for O=C1CCC(N2Cc3cc(C4(O)CCN(Cc5ccc(Oc6ccccc6)cc5)CC4)ccc3C2=O)C(=O)N1 (stereo not shown) and report
Reply | 50 to 70%

Ask | // repeat for O=C1CCC(N2Cc3cc(C4CCN(Cc5ccnc(Oc6ccccc6)c5)CC4)ccc3C2=O)C(=O)N1 (stereo not shown) and report
Reply | 50 to 70%

These measurements were taken from patent US20230002397A1.
